From: paper PMC3048208

- protocol_details: Plasma pharmacokinetics of SB939 in patients, LC–MS/MS, non-compartmental
- Assay type: in vivo, human
- measurement_setup: human, plasma, oral, 30 mg, Day 1; dose level 4, 30 mg
readout_label: AUC(0-inf)

{"test_smiles": "CCCCc1nc2cc(/C=C/C(=O)NO)ccc2n1CCN(CC)CC", "readout_value": "384 ng·h/mL"}

* * *

- protocol_details: Plasma pharmacokinetics of SB939 in patients, LC–MS/MS, non-compartmental
- Format: in vivo, human
- measurement_setup: human, plasma, oral, 10 mg, Day 3 or 5; dose level 2, 10 mg; read-out: T1/2, mean (converted)
readout_label: half-life

{"molecule": "CCCCc1nc2cc(/C=C/C(=O)NO)ccc2n1CCN(CC)CC [SB939]", "readout_value": "8.1 h"}
